// data source = patent US10336762B2

Tested on: TNFα
ASSAY_PROCEDURE: cells
Assay type: cell-based, human
TEST_CONDITIONS: Homo sapiens, Monocyte, LPS-stimulated human monocytes, TNFα content; read-out: EC50 TNF
OUTCOME_MEASURE: log10 EC50 (log10 of the value in µM)

COMPOUND	QUANTITATIVE_READOUT
N#Cc1cnn2c(-c3cc(NC45CCC(O)(CC4)CC5)c(C(=O)NCC4(F)CC4)cn3)ccc2c1	-0.82
CC(C)(O)[C@H](F)CNC(=O)c1cnc(-c2ccc3cc(C#N)cnn23)cc1NC12CCC(N3CCOCC3)(CC1)CC2	-1.42
CC(C)(O)[C@H](F)CNC(=O)c1cnc(-c2ccc3cc(C#N)cnn23)cc1N[C@H]1CC[C@H](c2ccon2)CC1	-1.82
CC(C)(O)[C@H](F)CNC(=O)c1cnc(-c2ccc3cc(C#N)cnn23)cc1Nc1cnn(CC(F)F)c1	-1.80
COCC1(Nc2cc(-c3ccc4cc(C#N)cnn34)ncc2C(=O)NC[C@@H](F)C(C)(C)O)CC1	-0.40
CC(C)(O)[C@H](F)CNC(=O)c1cnc(-c2ccc3cc(C#N)cnn23)cc1N[C@H]1C[C@H](CNCC(F)(F)F)C1	-0.82
C=CC(=O)NC12CCC(Nc3cc(-c4ccc5cc(C#N)cnn45)ncc3C(=O)NC[C@@H](F)C(C)(C)O)(CC1)CC2	-1.74
CC(C)(O)[C@H](F)CNC(=O)c1cnc(-c2ccc3cc(C#N)cnn23)cc1Nc1ccc(-c2ncc[nH]2)cc1	-1.24
CC(C)(O)[C@H](F)CNC(=O)c1cnc(-c2ccc3cc(C#N)cnn23)cc1NC1CCC(C(=O)N2CCOCC2)CC1 (some centres unmarked)	-0.83
COC(=O)NC1CC2(C1)CC(Nc1cc(-c3ccc4cc(C#N)cnn34)ncc1C(=O)NC[C@@H](F)C(C)(C)O)C2 (some centres unmarked)	-1.70
CC(C)(O)[C@H](F)CNC(=O)c1cnc(-c2ccc3cc(C#N)cnn23)cc1Nc1ccc(N2CCS(=O)(=O)CC2)cc1	-1.62
CC(C)(O)[C@H](F)CNC(=O)c1cnc(-c2ccc3cc(C#N)cnn23)cc1Nc1ccc2cc[nH]c2c1	-1.85
CC(C)(O)[C@H](F)CNC(=O)c1cnc(-c2ccc3cc(C#N)cnn23)cc1Nc1ccc(CNCC(F)(F)F)cc1	-1.80
